B1: TPR t1 (parent)
chain: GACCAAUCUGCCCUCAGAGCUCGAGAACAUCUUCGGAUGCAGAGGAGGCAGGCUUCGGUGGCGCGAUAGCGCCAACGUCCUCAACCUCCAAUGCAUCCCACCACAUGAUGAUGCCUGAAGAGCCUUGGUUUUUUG

Variants of: B1
Assay: polymerase ribozyme fitness, log enrichment relative to wild type (log ratio); higher = more active; in vitro selection for triplet polymerase activity
Would you mind telling me the reported polymerase ribozyme fitness (log ratio) of each entry?
Output spec: single numeric token, no unit.

Input U38G U116C , output reported polymerase ribozyme fitness (log ratio).
-2.06

Input U14G C20G G44U G117C , output reported polymerase ribozyme fitness (log ratio).
-6.5

Input C82G C88U A103C G117C , output reported polymerase ribozyme fitness (log ratio).
-5.02

Input G47C C70U C89U , output reported polymerase ribozyme fitness (log ratio).
-4.18

Input C8G G17U G48A G57U U112G C114U , output reported polymerase ribozyme fitness (log ratio).
-5.14

Input C13U G61C , output reported polymerase ribozyme fitness (log ratio).
-1.59

Input A6U G42U C89G C115A U125C , output reported polymerase ribozyme fitness (log ratio).
-3.18

Input G69U A111G , output reported polymerase ribozyme fitness (log ratio).
1.89

Input A6C G47U G69C C85A , output reported polymerase ribozyme fitness (log ratio).
-4.06

Input G19U , output reported polymerase ribozyme fitness (log ratio).
-2.52

Input A18C G39U C49U G120C , output reported polymerase ribozyme fitness (log ratio).
-4.35
